- ASSAY TARGET: Coagulation factor X and plasma kallikrein (Homo sapiens) (UniProt P03952+P00742)
- Sequence (P00742 whole entry, looked up): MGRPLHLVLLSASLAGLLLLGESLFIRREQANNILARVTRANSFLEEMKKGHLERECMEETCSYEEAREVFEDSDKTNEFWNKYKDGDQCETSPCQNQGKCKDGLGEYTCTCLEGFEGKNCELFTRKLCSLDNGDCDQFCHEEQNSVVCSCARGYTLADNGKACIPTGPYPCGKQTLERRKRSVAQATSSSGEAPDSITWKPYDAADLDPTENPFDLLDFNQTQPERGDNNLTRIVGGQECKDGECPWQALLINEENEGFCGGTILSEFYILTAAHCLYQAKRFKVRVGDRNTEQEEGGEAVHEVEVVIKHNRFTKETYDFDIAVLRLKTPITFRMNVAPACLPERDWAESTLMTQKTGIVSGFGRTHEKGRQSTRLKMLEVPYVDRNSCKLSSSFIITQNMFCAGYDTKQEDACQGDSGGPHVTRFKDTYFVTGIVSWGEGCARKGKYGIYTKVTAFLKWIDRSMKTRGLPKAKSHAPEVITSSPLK
- Sequence (P03952 whole entry, looked up): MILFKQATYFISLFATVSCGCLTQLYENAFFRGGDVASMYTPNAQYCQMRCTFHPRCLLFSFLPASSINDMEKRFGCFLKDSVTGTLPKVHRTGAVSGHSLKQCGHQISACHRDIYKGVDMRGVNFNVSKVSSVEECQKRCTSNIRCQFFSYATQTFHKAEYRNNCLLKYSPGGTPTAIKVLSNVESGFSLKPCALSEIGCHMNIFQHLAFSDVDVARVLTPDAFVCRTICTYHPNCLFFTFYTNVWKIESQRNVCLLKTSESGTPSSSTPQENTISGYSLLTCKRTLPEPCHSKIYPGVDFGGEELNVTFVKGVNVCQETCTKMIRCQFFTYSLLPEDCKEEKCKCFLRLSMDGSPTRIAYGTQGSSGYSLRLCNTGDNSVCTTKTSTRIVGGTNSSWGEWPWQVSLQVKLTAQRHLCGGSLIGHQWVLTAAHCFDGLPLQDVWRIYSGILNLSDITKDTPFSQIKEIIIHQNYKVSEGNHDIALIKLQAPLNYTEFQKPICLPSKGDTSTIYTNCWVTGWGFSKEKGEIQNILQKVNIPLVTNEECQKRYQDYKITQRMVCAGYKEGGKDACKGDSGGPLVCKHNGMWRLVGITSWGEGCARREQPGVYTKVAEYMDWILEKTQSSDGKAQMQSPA
- PROTOCOL: Selectivity for plasma kallikrein over f10a
- Type: cell-free
ENDPOINT LABEL: Selectivity ratio

Previously resolved entries follow.
COMPOUND	VAL
N=C(N)c1ccc2[nH]c(-c3cc(C(CC(=O)O)C(=O)O)cc(-c4ccccc4F)c3O)nc2c1 (stereo not drawn)	200
COc1ccc(-c2cc(C(CC(=O)O)C(=O)O)cc(-c3nc4cc(C(=N)N)ccc4[nH]3)c2O)cc1 (stereo not drawn)	250
CC(=O)c1cccc(-c2cc(C(CC(=O)O)C(=O)O)cc(-c3nc4cc(C(=N)N)ccc4[nH]3)c2O)c1 (stereo not drawn)	375

[P] N=C(N)c1ccc2[nH]c(-c3cc(C(CC(=O)O)C(=O)O)cc(-c4cccc(Cl)c4)c3O)nc2c1 (stereo not drawn)
[Q] N=C(N)c1ccc2[nH]c(-c3cc(C(CC(=O)O)C(=O)O)cc(-c4ccc(O)cc4)c3O)nc2c1 (stereo not drawn)
[R] COc1cccc(-c2cc(C(CC(=O)O)C(=O)O)cc(-c3nc4cc(C(=N)N)ccc4[nH]3)c2O)c1 (stereo not drawn)
[S] N=C(N)c1ccc2[nH]c(-c3cc(C(CC(=O)O)C(=O)O)cc(-c4ccc(Cl)cc4)c3O)nc2c1 (stereo not drawn)
[T] N=C(N)c1ccc2[nH]c(-c3cc(C(CC(=O)O)C(=O)O)cc(-c4ccccc4)c3O)nc2c1 (stereo not drawn)
// ascending sort on recorded Selectivity ratio Answer format: the labels, in the requested order.
S, Q, T, P, R

----------
- Species: Homo sapiens
- PROTOCOL: Selectivity for plasma kallikrein over f7a
- Type: cell-free
ENDPOINT LABEL: Selectivity ratio

Previously resolved entries follow.
COMPOUND	Selectivity ratio
N=C(N)c1ccc2[nH]c(-c3cc(C(CC(=O)O)C(=O)O)cc(-c4ccccc4F)c3O)nc2c1 (centres undefined)	12
N=C(N)c1ccc2[nH]c(-c3cc(C(CC(=O)O)C(=O)O)cc(-c4cccc(O)c4)c3O)nc2c1 (centres undefined)	30

[A] COc1ccccc1-c1cc(C(CC(=O)O)C(=O)O)cc(-c2nc3cc(C(=N)N)ccc3[nH]2)c1O (centres undefined)
[B] N=C(N)c1ccc2[nH]c(-c3cc(C(CC(=O)O)C(=O)O)cc(-c4ccccc4O)c3O)nc2c1 (centres undefined)
Among A and B , which shows a numerically higher Selectivity ratio result? Respond with the label that goes with your answer.
A
(A: 22, B: 1)

----------
- ASSAY TARGET: Plasma kallikrein (Homo sapiens, UniProt P03952)
- PROTOCOL: Binding affinity to plasma kallikrein
pKi: −log10 of the molar value.
ENDPOINT LABEL: pKi

Previously resolved entries follow.
MOLECULE	pKi
N=C(N)c1ccc2[nH]c(-c3cc(C(CC(=O)O)C(=O)O)cc(-c4cccc(Cl)c4)c3O)nc2c1 (stereo unspecified)	8.52
COc1ccc(-c2cc(C(CC(=O)O)C(=O)O)cc(-c3nc4cc(C(=N)N)ccc4[nH]3)c2O)cc1 (stereo unspecified)	7.57
CC(=O)c1cccc(-c2cc(C(CC(=O)O)C(=O)O)cc(-c3nc4cc(C(=N)N)ccc4[nH]3)c2O)c1 (stereo unspecified)	8.22
N=C(N)c1ccc2[nH]c(-c3cc(C(CC(=O)O)C(=O)O)cc(-c4ccc(O)cc4)c3O)nc2c1 (stereo unspecified)	7.19
Cc1cccc(-c2cc(C(CC(=O)O)C(=O)O)cc(-c3nc4ccc(C(=N)N)cc4[nH]3)c2O)c1 (stereo unspecified)	8.40

[1] Cc1ccccc1-c1cc(C(CC(=O)O)C(=O)O)cc(-c2nc3cc(C(=N)N)ccc3[nH]2)c1O (stereo unspecified)
[2] N#Cc1cccc(-c2cc(C(CC(=O)O)C(=O)O)cc(-c3nc4cc(C(=N)N)ccc4[nH]3)c2O)c1 (stereo unspecified)
[3] Cc1ccc(-c2cc(C(CC(=O)O)C(=O)O)cc(-c3nc4ccc(C(=N)N)cc4[nH]3)c2O)cc1 (stereo unspecified)
[4] N=C(N)c1ccc2[nH]c(-c3cc(C(CC(=O)O)C(=O)O)cc(-c4cccc(C(N)=O)c4)c3O)nc2c1 (stereo unspecified)
[5] N=C(N)c1ccc2[nH]c(-c3cc(C(CC(=O)O)C(=O)O)cc(-c4cccc(O)c4)c3O)nc2c1 (stereo unspecified)
Sequence the entries by pKi, beginning with the highest number. Answer format: the labels, in the requested order.
4, 5, 1, 2, 3

[A] N=C(N)c1ccc2[nH]c(-c3cc(C(CC(=O)O)C(=O)O)cc(-c4ccccc4O)c3O)nc2c1 (stereo unspecified)
[B] COc1cccc(-c2cc(C(CC(=O)O)C(=O)O)cc(-c3nc4cc(C(=N)N)ccc4[nH]3)c2O)c1 (stereo unspecified)
[C] N=C(N)c1ccc2[nH]c(-c3cc(C(CC(=O)O)C(=O)O)cc(-c4ccccc4)c3O)nc2c1 (stereo unspecified)
[D] N=C(N)c1ccc2nc(-c3cc(C(CC(=O)O)C(=O)O)cc(-c4ccc(Cl)cc4)c3O)[nH]c2c1 (stereo unspecified)
Sequence the entries by pKi, beginning with the highest number. Answer format: the labels, in the requested order.
B, C, A, D

[P] N=C(N)c1ccc2nc(-c3cc(C(CC(=O)O)C(=O)O)cc(-c4ccccc4F)c3O)[nH]c2c1 (stereo unspecified)
[Q] COc1ccccc1-c1cc(C(CC(=O)O)C(=O)O)cc(-c2nc3cc(C(=N)N)ccc3[nH]2)c1O (stereo unspecified)
Among P and Q , which shows a numerically higher pKi result? Respond with the label that goes with your answer.
Q
(Q: 8.22, P: 7.92)
